procedure.details: in vivo
settings: mouse, po, 1 mg/kg
measurement.label: Cmax (nM)
Express it in nM; write the number only.

Give me measured Cmax, please, for this compound: CN1C(=O)N(c2cc(Cl)cc(Cl)c2)C(=O)[C@]12CN(Cc1cc(C(=O)O)cs1)C[C@H]2c1ccc(C#N)cc1 83

---

procedure.details: in vivo
settings: mouse, iv, 1 mg/kg
measurement.label: half-life

Quick one: give measured half-life for CN1C(=O)N(c2cc(Cl)cc(Cl)c2)C(=O)[C@]12CN(Cc1cc(C(=O)O)cs1)C[C@H]2c1ccc(C#N)cc1 324 min

---

procedure.details: in vivo
settings: dog, po, 10 mg/kg
measurement.label: Cmax
Be sure to follow the number with its unit.

Look up Cmax of CN1C(=O)N(c2cc(Cl)cc(Cl)c2)C(=O)[C@]12CN(Cc1cc(C(=O)O)cs1)C[C@H]2c1ccc(C#N)cc1 and report it. 18.9 µM
